- Tested on: TNFα-induced IL6 mRNA
- test-summary: Dose-response on TNFα-induced IL6 mRNA levels
- Format: cell-based, human
- study-conditions: read-out: IC50, inflammatory gene inhibition (TNFα-induced transcription, FIG. 3D)
readout: IC50 (µM)
Give bare numbers, in µM.

Identify measured IC50 obtained with TNFα-induced IL6 mRNA for Nc1ccccc1SC(CC(=O)c1cccs1)c1cccs1 (stereo not shown) [SPI-18] . 39
